Some molecules, each annotated with its measured Papp.
assay: Caco-2 permeability assay (CacoReady kit); format: in vitro ADME; conditions: human, Caco-2, Caco-2 barrier, CacoReady kit; above 1×10^−6 cm/s classified as permeable

Worked examples follow.
INSERT INTO measurements (molecule, test_value) VALUES
  ('O=C(Cn1cccc(NC(=O)[C@H](CCC(=O)C(=O)NC2CCCC2)NC(=O)c2cn3ccsc3n2)c1=O)N[C@@H]1C[C@@H]2CC[C@H]1C2', '1 to 10 ×10⁻⁶ cm/s'),
  ('CNC(=O)C(=O)CC[C@H](NC(=O)c1oc2ccccc2c1C)C(=O)Nc1cccn(CC(=O)NC2C3CC4CC2CC(C)(C4)C3)c1=O (stereo partly shown)', '< 1 ×10⁻⁶ cm/s'),
  ('Cc1nnsc1C(=O)N[C@@H](CCC(=O)C(N)=O)C(=O)Nc1cccn(CC(=O)NC2C3CC4CC(C3)CC2C4)c1=O (stereo partly shown)', '< 1 ×10⁻⁶ cm/s'),
  ('C=CCNC(=O)C(=O)CC[C@H](NC(=O)c1cc2ccccc2o1)C(=O)Nc1cccn(CC(=O)NC2C3CC4CC(C3)CC2C4)c1=O (stereo partly shown)', '1 to 10 ×10⁻⁶ cm/s');

Problem: // returns reported Papp for input CNC(=O)C(=O)CC[C@H](NC(=O)c1cncc(C(=O)O)c1)C(=O)Nc1cccn(CC(=O)NC2C3CC4CC(C3)CC2C4)c1=O (stereo partly shown)
Solution: < 1 ×10⁻⁶ cm/s

Problem: // Papp lookup, key: CNC(=O)C(=O)CC[C@H](NC(=O)c1cccnn1)C(=O)Nc1cccn(CC(=O)NC2C3CC4CC(C3)CC2C4)c1=O (stereo partly shown)
Solution: < 1 ×10⁻⁶ cm/s

Problem: Please report the recorded Papp for CNC(=O)C(=O)CC[C@H](NC(=O)c1cncc(C(=O)OC)c1)C(=O)Nc1cccn(CC(=O)NC2C3CC4CC(C3)CC2C4)c1=O (stereo partly shown) .
Solution: < 1 ×10⁻⁶ cm/s

Problem: Papp for CNC(=O)C(=O)CC[C@H](NC(=O)c1sc(Br)cc1Br)C(=O)Nc1cccn(CC(=O)NC2C3CC4CC(C3)CC2C4)c1=O (stereo partly shown) ?
Solution: 1 to 10 ×10⁻⁶ cm/s

Problem: May I ask what Papp has been recorded for `CNC(=O)C(=O)CC[C@H](NC(=O)c1snnc1C)C(=O)Nc1cccn(CC(=O)N[C@@H]2C[C@@H]3CC[C@H]2C3)c1=O` ?
Solution: < 1 ×10⁻⁶ cm/s
